growth values, listed per item
System: SK-MEL-2 melanoma
PROTOCOL_NOTES: NCI-60 one-dose screen, 48 h (100 = growth as untreated, 0 = no growth, -100 = all killed)
SETTINGS: 10 µM
Description: Growth inhibition of the SK-MEL-2 human tumor cell line is measured as a screen for anti-cancer activity. Cells are grown in 96 well plates and exposed to the test compound for 48 hours. Compounds are tested at a single concentration, which is 10^-5 M for most compounds. The reported endpoint is percent growth (GI% or GIPRCNT), where numbers from 0 - 100% represent growth inhibition, and numbers from -100% - 0 represent cell death. For example, a value of 40 represents 60% growth inhibition. […]
This is part of a sample that, as a whole, favours compounds with a hit. Of some 83,000 tested, about 20% had one in any assay.
The reply should be a number in %, with the unit left off.

{"COMPOUND": "COc1ccc2nc(Cl)c(Cn3nnc(Cc4ccccc4)n3)cc2c1", "UOM": "%", "NUMERIC_RESULT": 49.6}
{"COMPOUND": "Cc1ccc(C(SCC(N)C(=O)O)(c2ccc(C)cc2)c2ccc(C)cc2)cc1 (stereo not given)", "UOM": "%", "NUMERIC_RESULT": -52.1}
{"COMPOUND": "CCOC(=O)C1=CSC2=NC3=C(CCC/C3=C\\c3ccc(Cl)cc3)C(c3ccc(Cl)cc3)N12 (stereo not given)", "UOM": "%", "NUMERIC_RESULT": 106}
{"COMPOUND": "CN(C)CCOc1ccccc1NC1=C(Cl)C(=O)C(Nc2ccccc2OCCN(C)C)=C(Cl)C1=O", "UOM": "%", "NUMERIC_RESULT": 82.9}
{"COMPOUND": "COc1cc(-c2nn(-c3cccc(NC(=O)CN4CCOCC4)c3)cc2-c2cccnc2)ccc1Cl", "UOM": "%", "NUMERIC_RESULT": 82.1}
{"COMPOUND": "CCOC(=O)c1sc2ncnc(Nc3ccc4c(cnn4C(=O)Nc4ccc(C)c(Cl)c4)c3)c2c1C", "UOM": "%", "NUMERIC_RESULT": 83.5}
{"COMPOUND": "Cc1ccc(C(=O)/C=C/c2ccccc2)s1", "UOM": "%", "NUMERIC_RESULT": 102}
{"COMPOUND": "NC(N)=N/N=C(\\N=Nc1ccccc1)c1ccc(Cl)cc1", "UOM": "%", "NUMERIC_RESULT": 52.5}
{"COMPOUND": "COc1ccc(-c2cc(-c3ccc(Cl)cc3)nc(SCCCC(=O)NO)n2)cc1", "UOM": "%", "NUMERIC_RESULT": 0.495}
{"COMPOUND": "O=C(CCl)Oc1ccc(OC(=O)CCl)cc1", "UOM": "%", "NUMERIC_RESULT": 96.1}

In one line, give reported growth of the entry C=C1CCC2(C#N)[C@H]3[C@H](CC[C@@H]2C)[C@@H](C)C[C@@H](CC(C)(C)NC(=O)CN2CCC2=O)[C@H]13 (stereo not given in full) . 64.4

In one line, give reported growth of the entry CC1=NN(C(=O)c2nn(-c3ccc(Cl)cc3)cc2O)C(=O)C1 . 60.3

In one line, give reported growth of the entry COc1cc(-c2nn(-c3cccc(NC(=O)CCN4CCN(c5ccccc5)CC4)c3)cc2-c2ccncc2)ccc1Cl . -0.713

In one line, give reported growth of the entry C#CC(C)(O)[C@@H]1C[C@H](CC(=O)O)C1(C)C (stereo not given in full) . 108

In one line, give reported growth of the entry COc1cccc(-c2nc3sccn3c2-c2cccc(S(C)(=O)=O)c2)c1 . 115

In one line, give reported growth of the entry COc1cc2cc(Oc3ccc(NC(=O)c4ccccc4)cc3)c(C)nc2cc1OC . 59.5

====

System: UACC-62 melanoma
PROTOCOL_NOTES: NCI-60 one-dose screen, 48 h (100 = growth as untreated, 0 = no growth, -100 = all killed)
SETTINGS: 10 µM
Compounds without any hit were thinned out: in the full panel of roughly 83,000, 20% have a hit.
ATTRIBUTE_MEASURED: growth (%)
The reply should be a number in %, with the unit left off.

{"COMPOUND": "O=C(CCCNC(=O)c1nc(-c2ccccc2)n(-c2ccccc2)n1)NO", "UOM": "%", "growth": 102}

Enter growth (test system UACC-62 melanoma) for COc1ccc2cc(-c3nc4ccccc4s3)c(Cl)nc2c1OC 91.1

====

Test system: SN12C renal
PROTOCOL_NOTES: NCI-60 one-dose screen, 48 h (100 = growth as untreated, 0 = no growth, -100 = all killed)
SETTINGS: 10 µM
This is part of a sample that, as a whole, favours compounds with a hit. Of some 83,000 tested, about 20% had one in any assay.
ATTRIBUTE_MEASURED: growth (%)
The reply should be a number in %, with the unit left off.

Consider the reported growth for these compounds:
{"COMPOUND": "COc1cc(/C=C/c2cc(/C=C/c3ccc(O)c(OC)c3)n(C(=O)Nc3ccc(C)cc3)n2)ccc1O", "SYSTEM": "SN12C renal", "NUMERIC_RESULT": 18.3}
{"COMPOUND": "CCCCC1(O)CCCCC1", "SYSTEM": "SN12C renal", "NUMERIC_RESULT": 103}
{"COMPOUND": "COc1ccc(/C=C/c2nnc(/C=C/c3ccc(OC)c(OC)c3)o2)cc1OC", "SYSTEM": "SN12C renal", "NUMERIC_RESULT": 22.1}
{"COMPOUND": "CC(=O)OC/C=C(/C)C[P+](c1ccccc1)(c1ccccc1)c1ccccc1", "SYSTEM": "SN12C renal", "NUMERIC_RESULT": 51.5}
{"COMPOUND": "O=S(=O)(Oc1ccc(-c2ccc3sccc3c2)cc1)c1ccc(F)cc1", "SYSTEM": "SN12C renal", "NUMERIC_RESULT": 96.5}
{"COMPOUND": "O=[N+]([O-])c1ccc(NCSc2ccc(Cl)cc2)cc1", "SYSTEM": "SN12C renal", "NUMERIC_RESULT": 86}

In one line, give reported growth of the entry Cc1ccc(-n2nnnc2N)c(C)c1 . 113

In one line, give reported growth of the entry O=C(NCCNC(=O)c1ccc(F)cc1)Nc1ccc(-n2cc(-c3ccncc3)c(-c3ccc(Cl)c(O)c3)n2)cc1 . 31.5

In one line, give reported growth of the entry COc1cc2c(cc1NC(=O)C(F)(F)F)-c1ccc(NC(=O)C(F)(F)F)cc1C2 . 86.8

In one line, give reported growth of the entry COc1ccc(-c2nn(-c3cccc(Cl)c3)cc2-c2nc(N)[nH]c(=O)c2C#N)cc1 . 84.9

In one line, give reported growth of the entry NC(N)=N/N=C(\c1ccccc1)C(O)c1ccccc1 (centres undefined) . 99.6

In one line, give reported growth of the entry COc1cc(-c2nn(-c3cccc(NC(=O)NCCNC(=O)c4ccccc4)c3)cc2-c2ccncc2)ccc1Cl . 25.2

In one line, give reported growth of the entry CN(C)CCOc1cccc(NC2=C(Cl)C(=O)C(Nc3cccc(OCCN(C)C)c3)=C(Cl)C2=O)c1 . -76.3

In one line, give reported growth of the entry COc1ccc(-c2n[nH]nc2-c2cc(OC)c3c(c2OC)OCO3)cc1 . 33.5

In one line, give reported growth of the entry COc1ccc(C(=O)c2ccccc2CN2C(=O)c3ccccc3C2=O)cc1 . 105

In one line, give reported growth of the entry CNS(=O)(=O)Oc1ccc(-c2ccc3occc3c2)cc1 . 97.7

In one line, give reported growth of the entry Nc1ccc(/C=N/Nc2ccnc3c(O)cccc23)c2cccnc12 . 76.9

====

Test system: SF-268 CNS
PROTOCOL_NOTES: NCI-60 one-dose screen, 48 h (100 = growth as untreated, 0 = no growth, -100 = all killed)
SETTINGS: 10 µM
The panel holds about 83,000 compounds, 20% with a hit somewhere; the sample as a whole holds those more often.
growth values, listed per item
The reply should be a number in %, with the unit left off.

{"SMILES_REPR": "COc1cc2c(cc1NC(=O)C(F)(F)F)-c1ccc(NC(=O)C(F)(F)F)cc1C2", "ATTRIBUTE_MEASURED": "growth", "NUMERIC_RESULT": 90.1}
{"SMILES_REPR": "CC(C)(C)OC(=O)N1CCc2c(sc3ncnc(N/N=C/c4ccccc4Br)c23)C1", "ATTRIBUTE_MEASURED": "growth", "NUMERIC_RESULT": 87.8}

In one line, give reported growth of the entry O=C1CSC(=S)N1/N=C/c1ccc(Cl)s1 . 91.9

====

Tested on: SK-MEL-5 melanoma
PROTOCOL_NOTES: NCI-60 one-dose screen, 48 h (100 = growth as untreated, 0 = no growth, -100 = all killed)
SETTINGS: 10 µM
About 83,000 compounds went through this panel and 20% of them were active in at least one assay; those are over-represented in the sample as a whole.
Rule: 1 (yes) for growth not less than 20%, 0 (no) for anything less.

Use the examples below as a reference point.
{"COMPOUND": "CC(=O)C1CCC2C3CC=C4CC(SC(=N)N)CCC4(C)C3CCC12C (stereo unspecified)", "CATEGORY": "0 (no)"}
{"COMPOUND": "CCOC(=O)c1sc2ncnc(Nc3ccc4c(cnn4C(=O)Nc4ccc(C)c(Cl)c4)c3)c2c1C", "CATEGORY": "1 (yes)"}
{"COMPOUND": "COc1ccc(/C(C#N)=C/c2ccccc2OC)cc1", "CATEGORY": "0 (no)"}
{"COMPOUND": "C=CCn1c(SCC(=O)Nc2ccc(C(=O)/C=C/c3ccc(OC)cc3)cc2)nnc1-c1ccc(OC)c(OC)c1", "CATEGORY": "1 (yes)"}
{"COMPOUND": "COc1ccc2nc(-c3ccc(Cl)cc3)cc(-c3nnc(SC/C(=N\\O)c4ccccc4)n3-c3ccccc3)c2c1", "CATEGORY": "1 (yes)"}

Turning now to a further compound:
Is it the case that COc1cc(C2CC(c3ccc4c(c3)OCO4)=NN2c2ccccc2)cc(OC)c1OC (stereo unspecified) has growth reaching or exceeding 20%? 1 (yes)
